substances and their reported 2% Acetic Acid Eluate, A280
Target: fibrinogen (Homo sapiens, UniProt P02671+P02675+P02679)
Construct: purchased Sigma Chemical Co. (St. Louis, Mo.) and Chromogenix AB (Molndal, Sweden)
Sequence (P02671 20-644 isoform P02671-2 limits assumed): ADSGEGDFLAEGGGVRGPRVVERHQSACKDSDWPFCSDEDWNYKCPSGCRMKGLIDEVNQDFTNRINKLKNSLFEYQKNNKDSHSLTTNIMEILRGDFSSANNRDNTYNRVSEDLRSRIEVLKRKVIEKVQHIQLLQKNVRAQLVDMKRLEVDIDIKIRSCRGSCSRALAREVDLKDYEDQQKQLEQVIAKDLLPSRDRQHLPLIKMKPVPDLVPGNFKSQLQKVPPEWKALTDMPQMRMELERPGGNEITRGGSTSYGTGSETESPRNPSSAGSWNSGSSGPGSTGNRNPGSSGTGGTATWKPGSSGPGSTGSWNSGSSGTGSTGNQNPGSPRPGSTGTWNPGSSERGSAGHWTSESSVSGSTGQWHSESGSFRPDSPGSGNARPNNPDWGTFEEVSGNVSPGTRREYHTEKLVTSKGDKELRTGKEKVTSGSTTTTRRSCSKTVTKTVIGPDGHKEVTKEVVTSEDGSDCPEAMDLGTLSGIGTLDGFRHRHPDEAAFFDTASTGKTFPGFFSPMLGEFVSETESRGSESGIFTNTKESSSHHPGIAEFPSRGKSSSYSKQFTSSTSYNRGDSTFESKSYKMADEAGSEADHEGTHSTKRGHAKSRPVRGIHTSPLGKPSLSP
Sequence (P02675 31-491): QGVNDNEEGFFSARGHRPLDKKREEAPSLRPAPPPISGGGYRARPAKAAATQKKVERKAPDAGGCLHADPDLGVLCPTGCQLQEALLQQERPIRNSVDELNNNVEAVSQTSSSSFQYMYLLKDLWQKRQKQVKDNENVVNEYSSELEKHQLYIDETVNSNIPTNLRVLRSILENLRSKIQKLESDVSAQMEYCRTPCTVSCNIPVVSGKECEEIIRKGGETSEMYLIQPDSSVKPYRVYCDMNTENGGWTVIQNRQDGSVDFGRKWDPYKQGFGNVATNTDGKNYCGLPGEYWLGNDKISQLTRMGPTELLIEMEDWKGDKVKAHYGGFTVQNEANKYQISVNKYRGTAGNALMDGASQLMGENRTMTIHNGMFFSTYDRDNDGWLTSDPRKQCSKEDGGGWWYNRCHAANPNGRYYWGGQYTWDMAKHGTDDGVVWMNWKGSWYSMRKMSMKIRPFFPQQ
Sequence (P02679 27-453): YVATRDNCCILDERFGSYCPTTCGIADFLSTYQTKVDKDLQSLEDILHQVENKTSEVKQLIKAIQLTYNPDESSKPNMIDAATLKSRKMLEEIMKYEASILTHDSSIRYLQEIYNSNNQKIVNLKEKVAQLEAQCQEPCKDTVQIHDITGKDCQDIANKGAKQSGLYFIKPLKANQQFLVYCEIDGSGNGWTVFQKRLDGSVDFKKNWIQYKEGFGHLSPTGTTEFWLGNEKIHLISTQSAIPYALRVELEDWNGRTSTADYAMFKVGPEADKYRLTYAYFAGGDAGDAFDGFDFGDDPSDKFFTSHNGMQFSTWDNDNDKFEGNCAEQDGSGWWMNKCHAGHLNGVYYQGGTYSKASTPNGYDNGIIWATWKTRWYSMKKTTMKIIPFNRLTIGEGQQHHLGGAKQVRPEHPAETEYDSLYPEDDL
Test: Confirmatory binding assay in column chromatographic format: fibrinogen applied to peptide resins, NaCl wash and acid eluate quantified by A280
Conditions: 250 μg fibrinogen applied; peptide synthesized on A-Totda-Toyopearl; Table 2
Experimental: Confirmatory binding assays were performed in a column chromatographic format on a microbore HPLC using individual peptide sequences synthesized directly onto the Toyopearl 650M Chelate resin which had been modified with Totda followed by an alanine residue (A-Totda-Toyopearl), at a final substitution density of 0.2 mmole/g resin. […]
No end group written: not given here.
Reported Metric: 2% Acetic Acid Eluate, A280

                                  substance                          target_or_system  quantitative_result
0  PALVPL: peptide sequence PALVPL synthesized on A-Totda-Toyopearl (not fully specified (C-terminus))  fibrinogen (Homo sapiens, UniProt P02671+P02675+P02679)                 0.01
1  ALLVPL: peptide sequence ALLVPL synthesized on A-Totda-Toyopearl (not fully specified (C-terminus))  fibrinogen (Homo sapiens, UniProt P02671+P02675+P02679)                 0.02
2  Phe-Ala-Leu-Val- Pro-Leu (FALVPL; not fully specified (C-terminus); printed as Phe-Ala-Leu-Val-Pro-Leu)  fibrinogen (Homo sapiens, UniProt P02671+P02675+P02679)                 0.72
3  AALVPL: peptide sequence AALVPL synthesized on A-Totda-Toyopearl (not fully specified (C-terminus))  fibrinogen (Homo sapiens, UniProt P02671+P02675+P02679)                 0.02
